Entries and their PBM binding z-score
tested on: FXR:RXRa (NR concentration 270 nM, RXRa partner concentration 90 nM); test: PBM binding z-score (relative to random genomic background probes); higher = stronger binding; sequences stand for … in GC…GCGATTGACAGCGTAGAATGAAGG
assay.metric: PBM binding z-score

1) TCGATTAGGTTAGTCGGGGCATTCAGCCAACATA = 0.428
2) CCTGTTAGGTCATGGTCAGCTAATCTACAGTATG = 4.26
3) CCTAGTTGGTCAACGTCACACACGCTATAGGTAC = 0.458
4) GGAACGAGGGCAAGTTGAGAGCAGAGTTTGATGG = 1
5) CGTCCAAGGTCAATGCTATGTCAGTGAAAGCATT = 6.33

###

test system: PPARg:RXRa 270nM:90nM, anti-RXR (NR concentration 270 nM, RXRa partner concentration 90 nM); assay: PBM binding z-score (relative to random genomic background probes); higher = stronger binding; sequences stand for … in GC…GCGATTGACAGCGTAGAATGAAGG
assay.metric: PBM binding z-score

1. GCTACTGGGGCATCAGCAGGTTACCATAACTTAA = 2.01
2. CAGCCTAGGTCATGGCCAGTATAGGAGGAACGTT = 2.86
3. TCATATAGGTCAACAGGTGAAAGTCCGTAAGTTA = 7.51
4. GCTTACGGGTCAAAGGTGATAGCATGAATAGAAT = 8.54
5. GATACAGGGCCAAGGCCAGAGTACGCGTATTGAT = 0.25
6. CGTCCCAGGTCAAGGTCAGTGAAAGAGACTCGAA = 4.51
7. CCTGCTAGGTCATGGTTAGCTAATCTACAGTATG = 3.06
8. ACTAGCAGGCCATGGGTCACTCAAGATTAGTCCG = 5.14
9. ACTATTAGTTGAGACGAGTGCAACCGATAGGTTG = 0.0303
10. AGAATGAGGTTAAGCTCAGGGAAACAGAATACAT = 2.58
11. CCTGCTAGGTCATAGTCAGCTAATCTACAGTATG = 2.14
12. CCAACTAGGTCATCCAGGACAGTGAATACATTGA = 5.59
13. ACTGGCAGGCCAAGGGTCACTCAAGATTAGTCCG = 5.21

###

tested on: RXRa DBDmut IVT, anti-RXR (DBD mutation: RXRa K156A/R161A, NR concentration 90 nM); test: PBM binding z-score (relative to random genomic background probes); higher = stronger binding; sequences stand for … in GC…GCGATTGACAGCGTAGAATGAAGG
Please note: True applies when PBM binding z-score is 1 or greater, and False applies otherwise.

1. ATACCAAGGTGATCGTAAGGTCGTTGATACTAAC = False
2. TGTCAAAGTTCAAGGGTAACGTAAGTATCCACAC = True
3. ACTAGCAGGCGAAGTTTGGGTCACTCAAACAAAG = False
4. CGTCCAAGGTCAGCAGGTCAGGGAAAGCGACGTG = True
5. GGAACGAGGGCATTCGAGTTGATAACATGGCGAT = True
6. TCGAGTAGGTTACCAATGGGGCATTAAGCTTTCT = False
7. GCTATTAGTTGAAAGGGCCACCGAATGATTCTCG = False
8. CGTCCAAGGTCAGAGAGGTCTGTGAATGCCGAGT = True
9. GCGACTGGGGCAAAGCAGGTTAGCATAAGGTTGG = False
10. ATACCACGGTGATCGTGAGGTCGTTGATACTAAC = False
11. TCTATTAGTGGATTAGGGCAACCGAAACAGCGGA = True
12. TATACATGGTCAAAGGCCAGAGTACGAATGTCGA = False
13. CAAACTAGGTCAAGACGTCAAAGTCCGCTTCCCG = True
14. ACAAGCAGGCCAAGTTTGGGTCACTCAAACAAAG = False
15. TCTAGCAGGCCAGAGCGTCACTCAAGAGGTACGG = False
16. GCTTACGGGTCAAATGTTATAGCATGAATAGAAT = True
17. AGAATGAGGTTATACGTCGATCAGGGAAGAAAGT = True
18. TCTAGCAGGCGAGAGGGTCACTCAAGAGGTACGG = False
19. CGAATTAGGTCAAGGACAGTGAATCTCCGCACGC = True
20. AGAATGAGGTTACCAAAGATCAGGGGAACGCTTG = True
21. TCTTGTAGATCAGCAAGTTAAGAAAGCTGGCCAA = False
22. AGAATGAGGTTATTAAGATCAGAGAATTGCGGTC = True
23. CTTGCTAGGTCATGGTCAGCTAATCTACAGTATG = True
24. TCTTGTAGATCCATAGAGGTTAAGAAAGTGCGCT = False
25. CCTATGAGTTGACCATAAGGGCAACCGAAGCTCG = False
26. TAGCCTAGGTCATTAAGGGGCCAGTATAGAAAGC = True
27. ACTAGCAGGACAAGGGTCACTCAAGATTAGTCCG = False
28. GCAGACAGGTGAAACGCAGGTTACTCAGGGTGGC = False
29. AGTCAAAGTTCACTAGCTAACGTAAGATTCAGCT = True
30. TGTCAAAGTTCAAAGGTAACGGAAGTATCCACAC = True
31. GCAAGCAGGCCATTTGGGTCACTCAATGACGGGC = False
32. AGAATGAGGTTGAGATCAGGGAAACAGAATACAT = False
33. ATATGTAGGTTACATCCAGGTCATTCAGGCTATG = True
34. TAGCCTAGGTCATGGGTCAGTATACCACGCGAAC = False
35. TCTCGGAGGACACGAAAGGTCAGGGCTCGACATC = True
36. TAGCCTAGGTCAGATCGGGTCAGTATACGCTATA = False

###

test system: PPARg:RXRa 30nM:10nM, anti-RXR (NR concentration 30 nM, RXRa partner concentration 10 nM); assay: PBM binding z-score (relative to random genomic background probes); higher = stronger binding; sequences stand for … in GC…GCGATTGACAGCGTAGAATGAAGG
Entries and their PBM binding z-score
assay.metric: PBM binding z-score

1. CTCGAAAGGTCGGGTGAGGTGAGTATACGGATAA = 0.448
2. CGAACGAGGGCATGAGTTGATAGAAAATGCCGAT = 0.36
3. CAAACTAGATCAAGAGGTCAAAGTCCGCTTCCCG = 2.67
4. TAGCATAGGTCATTCAGGGGCCAGTATAGAAAGC = 1.5
5. CCTGCTAGGTCAGTGGTCAGCTAAAGCAGCTCGC = 0.178
6. CGTCCAAGGTCAAGGTCAGTGGAAGAGACTCGAA = 2.6
7. TCTAGCAGGCCAGAGGGTCACTTAAGAGGTACGG = 2.13
8. TCTTGTAGATCAATAGCGGTTAAGAAAGTGCGCT = 2.75

###

tested on: LXRa homodimer (NR concentration 270 nM); test: PBM binding z-score (relative to random genomic background probes); higher = stronger binding; sequences stand for … in GC…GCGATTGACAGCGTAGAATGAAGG
assay.metric: PBM binding z-score

1) TCATATAGGTAAACAGATGAAAGTCCGTAAGTTA = 0.342
2) ATATGTAGGTTAAGGGTCATTGAGGTTGGTTCGC = 3.01
3) AGACAAAGTTCACTAGGTAACGTAAGATTCAGCT = 2.65
4) AGTGAAAGTTCACTAGGTAACGTAAGATTCAGCT = 3.08
5) CAAACTAGGTCACAGAGGTCAAGGTCCGTGCGTA = 5.6
6) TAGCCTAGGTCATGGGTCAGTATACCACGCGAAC = 0.898
7) ACTATTAGTAGAGACGAGGGCAACCGATAGGTTG = 0.152
8) ATCTCTAAGTAACCAAGTTCAGTGAATGCCGAAC = 0.843
9) CTCGAAAGGTCGTGCTCTGGTGAGTATACCAAAC = 0.255
10) ATCTCTAGATAAGACTCAGTTCAGTGAAGAACGC = 0.034

###

Entries and their PBM binding z-score
system: PPARg DBDmut:RXRa IVT, anti-PPARg (DBD mutation: PPARg1 K132A/R137A, NR concentration 270 nM, RXRa partner concentration 90 nM); assay: PBM binding z-score (relative to random genomic background probes); higher = stronger binding; sequences stand for … in GC…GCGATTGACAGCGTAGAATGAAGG
assay.metric: PBM binding z-score

1. CCTCGGAGGAGAGAAGGTCAGAGCTGTCCGCTTT = -1.3
2. CCTACTTGGCCATCAGGTCATTGATATCAACGTT = 0.603
3. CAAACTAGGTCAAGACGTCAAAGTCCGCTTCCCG = 1.87
4. CCTACTGGGCCATCAGGGCATTGATATCAACGTT = 0.633
5. GCAGCTAGGTCAACTGATGGTCAGCTAAAGCTCG = -0.285
6. CCTTACGGGTCACGCCAGGTTATAGCATCGGAGT = 0.182
7. ACAGACAGGTGAGTGAAGGTAAATCAGCTGGACG = -0.117
8. CCTACTGGGCCACGAAAGGTCTTTGATTCAGTGA = 0.279
9. GGAACGAGAGCAAGTTGATAGCAGAGTTTGATGG = -0.891
10. GGAATGAGGGCATTCGAGTTGATAGCATGGCGAT = 1.13
11. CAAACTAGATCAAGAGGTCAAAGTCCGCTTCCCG = 0.521
12. CCTTACTGGTCACTCCAGGTTATAGCATCGGAGT = 0.287
13. CATACTAGGTCACCGGAAGGTCAAAGTCCGCATG = 4.35
14. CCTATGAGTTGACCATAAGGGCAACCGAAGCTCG = -0.849
15. ACAGACAGGTGAGTGAAGCTAACTCAGCTGGACG = -0.859
